Recorded values, source patent US12599672B2.

biological target: KRAS G12V (Homo sapiens, UniProt P01116, G12V); construct: SW620-KRAS (G12V)-HiBit-KI cell (Pharmaron); host or cells: SW620-KRAS (G12V)-HiBit-KI cells (HiBiT knock-in at the endogenous KRAS locus); test: KRAS G12V HiBit assay; format: cell-based; conditions: SW620-KRAS (G12V)-HiBit-KI cells, compound treatment for 24 hours, class symbols
Sequence (P01116 1-188 isoform P01116-2 G12V): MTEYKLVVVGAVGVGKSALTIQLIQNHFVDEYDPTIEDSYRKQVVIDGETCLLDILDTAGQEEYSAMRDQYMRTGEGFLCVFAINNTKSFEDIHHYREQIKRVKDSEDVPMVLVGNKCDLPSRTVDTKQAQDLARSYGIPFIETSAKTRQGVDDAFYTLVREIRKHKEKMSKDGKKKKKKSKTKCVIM
Reported values of DC50 for individual entries

Solved cases (4 shown):
C[C@H]1CN(CCOCCOCCOCCOc2cccc3c2n(C)c(=O)n3C2CCC(=O)NC2=O)CCCN1c1nccc(-c2noc([C@@]3(C)CCCc4sc(N)c(C#N)c43)n2)n1 (some centres unmarked) [Compound 219] | > 100 nM
CCc1c(F)ccc2cc(O)cc(-c3ncc4c(N5CCC[C@H](O)C5)nc(OC[C@@]56CCCN5[C@H](COC(=O)N5CCC7(CC5)CC(N5CCC(c8ccc9c(c8)n(C)c(=O)n9C8CCC(=O)NC8=O)CC5)C7)CC6)nc4c3F)c12 (some centres unmarked) [Compound 354] | < 10 nM
CCc1c(F)ccc2cc(O)cc(-c3ncc4c(N5CCCCCC5)nc(OC[C@@]56CCCN5[C@H](COC(=O)N5CCC7(CC5)CC(N5CCC(c8ccc9c(c8)n(C)c(=O)n9C8CCC(=O)NC8=O)CC5)C7)CC6)nc4c3F)c12 (some centres unmarked) [Compound 344] | > 100 nM
CCc1c(F)ccc2cc(O)cc(-c3ncc4c(N5CCC[C@@](C)(O)C5)nc(OC[C@@]56CCCN5[C@H](COC(=O)N5CC7(CCN(CC#Cc8ccc9c(c8)n(C)c(=O)n9C8CCC(=O)NC8=O)CC7)C5)CC6)nc4c3F)c12 (some centres unmarked) [Compound 453] | < 10 nM

[in] What measured DC50 is associated with CCc1c(F)ccc2cc(O)cc(-c3ncc4c(N5CCC[C@@](C)(O)C5)nc(OC[C@@]56CCCN5[C@H](COC(=O)N5CCC(N7CC8(CCN(c9ccc%10c(c9)n(C)c(=O)n%10C9CCC(=O)NC9=O)CC8)C7)CC5)CC6)nc4c3F)c12 (some centres unmarked) [Compound 362] on KRAS G12V (Homo sapiens, UniProt P01116, G12V)?
[out] < 10 nM

[in] Field entry: CCc1c(F)ccc2cc(O)cc(-c3ncc4c(N5CCC[C@@](C)(O)C5)nc(OC[C@]56CCCN5[C@H](COC(=O)N5CCC(c7cccc8c7n(C)c(=O)n8C7CCC(=O)NC7=O)CC5)CC6)nc4c3F)c12 (some centres unmarked) [Compound 310]
[out] > 100 nM

[in] Field entry: CCc1c(F)ccc2cc(O)cc(-c3ccc4c(N5CCC[C@@](C)(O)C5)nc(OCC56CCCN5C(COC(=O)N5CCC(CN7CCC(c8ccc9c(c8)n(C)c(=O)n9C8CCC(=O)NC8=O)CC7)CC5)CC6)nc4c3F)c12 (some centres unmarked) [Compound 304]
[out] > 100 nM

[in] Field entry: C#Cc1c(F)ccc2cccc(-c3ncc4c(N5CCC[C@@](C)(O)C5)nc(OC[C@@]56CCCN5[C@@H](COC(=O)N5CCC(CN7CCC(c8ccc9c(c8)n(C)c(=O)n9C8CCC(=O)NC8=O)CC7)CC5)CC6)nc4c3F)c12 (some centres unmarked) [Compound 138]
[out] > 100 nM

[in] Field entry: CCc1c(F)ccc2cc(O)cc(-c3ncc4c(N5CCC[C@@](C)(O)C5)nc(OC[C@@]56CCCN5[C@@H](COC(=O)N5CCC(CCCCOc7ccc8c(c7)n(C)c(=O)n8C7CCC(=O)NC7=O)CC5)CC6)nc4c3F)c12 (some centres unmarked) [Compound 317]
[out] > 100 nM

[in] Field entry: Cn1c(=O)n(C2CCC(=O)NC2=O)c2ccc(N3CCC(CN4CCN(C(=O)OC[C@@H]5CC[C@]6(COc7nc(N8CCC[C@@](C)(O)C8)c8cnc(-c9cc(O)cc%10ccc(F)cc9%10)c(F)c8n7)CCCN56)CC4)CC3)cc21 (some centres unmarked) [Compound 445]
[out] < 10 nM

[in] Field entry: C#Cc1c(F)ccc2cccc(-c3ncc4c(N5CCCC(C#N)CC5)nc(OC[C@@]56CCCN5[C@H](COC(=O)NCCOc5ccc7c(c5)n(C)c(=O)n7C5CCC(=O)NC5=O)CC6)nc4c3F)c12 (some centres unmarked) [Compound 116]
[out] > 100 nM

[in] Field entry: CCc1c(F)ccc2cc(O)cc(-c3ncc4c(N5CCC[C@@](C)(O)C5)nc(OC[C@@]56CCCN5[C@H](COC(=O)N5CC7(CCC(CN8CCC(c9ccc%10c(c9)n(C)c(=O)n%10C9CCC(=O)NC9=O)CC8)CC7)C5)CC6)nc4c3F)c12 (some centres unmarked) [Compound 448]
[out] < 10 nM
